FYI, the data here is from the supplement of paper PMC8728848.

- testedOn: Neu5Ac(a2-6)GalNAc
- testDetails: glycan array binding signal (z-score within array); higher = stronger binding
- appliedConditions: glycan notation: IUPAC condensed, linker removed
This excerpt belongs to a sample that is enriched for the strongest signals.
resultType: glycan array binding signal (z-score)
// no unit, no text: just the number

binder	glycan array binding signal (z-score)
TIM-1 (Mus musculus), AAL35774 (protein) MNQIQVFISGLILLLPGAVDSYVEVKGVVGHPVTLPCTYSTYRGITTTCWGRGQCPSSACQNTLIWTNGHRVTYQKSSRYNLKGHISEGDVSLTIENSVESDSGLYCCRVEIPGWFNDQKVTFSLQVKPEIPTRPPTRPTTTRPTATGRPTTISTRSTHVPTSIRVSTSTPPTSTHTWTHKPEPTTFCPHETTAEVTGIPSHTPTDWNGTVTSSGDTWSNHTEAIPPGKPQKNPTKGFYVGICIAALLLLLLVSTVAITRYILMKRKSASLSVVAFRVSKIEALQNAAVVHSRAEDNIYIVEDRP	-0.529

Given the entry Glycodelin A (Homo sapiens), P09466 (protein) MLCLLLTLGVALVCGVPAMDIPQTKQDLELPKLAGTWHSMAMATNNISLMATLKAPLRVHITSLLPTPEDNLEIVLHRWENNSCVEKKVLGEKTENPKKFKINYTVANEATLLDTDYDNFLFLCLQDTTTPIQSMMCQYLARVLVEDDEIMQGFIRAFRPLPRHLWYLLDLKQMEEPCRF , report its measured glycan array binding signal (z-score).
4.31

Fill in the blank: the reported glycan array binding signal (z-score) of CALR truncated at D342 (Homo sapiens) (protein) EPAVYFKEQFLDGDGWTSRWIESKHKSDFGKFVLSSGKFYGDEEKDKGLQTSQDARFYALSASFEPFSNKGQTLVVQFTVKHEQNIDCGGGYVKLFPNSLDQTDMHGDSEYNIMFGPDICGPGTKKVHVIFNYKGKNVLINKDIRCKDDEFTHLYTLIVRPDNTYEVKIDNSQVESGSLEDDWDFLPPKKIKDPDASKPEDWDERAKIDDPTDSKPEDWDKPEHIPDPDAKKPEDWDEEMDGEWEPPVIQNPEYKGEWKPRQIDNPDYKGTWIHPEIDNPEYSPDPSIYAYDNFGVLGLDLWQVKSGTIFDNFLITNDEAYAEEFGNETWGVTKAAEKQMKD is ____.
-0.893
